Molecular target: human κ opioid receptor (OPRK1) (Homo sapiens)
Construct: expressed in transfected cells; host or cells: CHO-K1
Sequence (P41145 whole entry): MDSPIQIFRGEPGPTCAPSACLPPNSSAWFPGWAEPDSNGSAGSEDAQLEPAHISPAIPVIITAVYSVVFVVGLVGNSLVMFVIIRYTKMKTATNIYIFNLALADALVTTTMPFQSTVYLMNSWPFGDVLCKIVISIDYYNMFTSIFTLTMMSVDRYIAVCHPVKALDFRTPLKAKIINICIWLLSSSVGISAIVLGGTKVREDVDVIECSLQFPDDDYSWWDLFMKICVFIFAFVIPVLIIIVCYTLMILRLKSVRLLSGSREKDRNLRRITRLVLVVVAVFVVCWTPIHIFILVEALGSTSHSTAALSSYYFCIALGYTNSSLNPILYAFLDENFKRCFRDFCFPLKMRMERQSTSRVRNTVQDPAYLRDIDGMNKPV
Test: Determination of activities of κ receptor agonists: inhibition of forskolin-stimulated cAMP release (HTRF) in stably transfected CHO-K1 cells
Assay type: cell-based
Square brackets hold non-standard residues; d marks the D form. Peptide text beside a SMILES is read from it. * marks the point of attachment. X3 = NCCCC[C@@H](NC(=O)[C@@H](CCCCN)NC(=O)C1(N)CCN(*)CC1)C(=O)O; X10 = NCCCC[C@@H](NC(=O)C1(N)CCN(*)CC1)C(=O)O; iPr = CC(C)*
Here the recorded EC50 is given for each entry.
API: value field is a number in nM; no unit string.

CCOc1ccc(C[C@@H](NC(=O)[C@H](N)Cc2ccccc2)C(=O)N[C@H](CC(C)C)C(=O)N[C@H](CCCCN)C(=O)N2CCC(N)(C(=O)N[C@H](CCCCN)C(=O)N[C@H](CCCCN)C(=O)O)CC2)cc1 [Compound 18] (H-[dF][dY](Et)[dL][dK]-X3; N-terminus assumed) :: 0.046

Now consider a different molecule.
State the recorded EC50 for this entry: CC(C)C[C@@H](NC(=O)[C@@H](Cc1ccc(OC(C)C)cc1)NC(=O)[C@H](N)Cc1ccccc1)C(=O)N[C@H](CCCCN)C(=O)N1CCC(N)(C(=O)N[C@H](CCCCN)C(=O)O)CC1 [Compound 102] (H-[dF][dY](iPr)[dL][dK]-X10; N-terminus assumed)
0.073

Entry source: patent US20260274891A1
